study-system: IL-13 (Homo sapiens (Human), UniProt P35225 35-146, limits assumed)
Sequence (P35225 35-146 limits assumed): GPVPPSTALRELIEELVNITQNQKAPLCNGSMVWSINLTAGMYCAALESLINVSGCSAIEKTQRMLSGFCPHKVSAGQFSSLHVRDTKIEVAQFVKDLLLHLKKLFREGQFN
procedure-summary: Biacore
assay-metric: koff (s⁻¹)
Record the value in s⁻¹, omitting the unit from your answer.

Ask: Can you share its koff? I mean this binder: M475 (antibody, V domains shown, anti-IL-13, human IgG1) VH: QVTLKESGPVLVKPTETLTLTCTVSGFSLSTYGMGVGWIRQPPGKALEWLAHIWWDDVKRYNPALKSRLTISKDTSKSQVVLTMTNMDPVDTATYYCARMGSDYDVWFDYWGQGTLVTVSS VL: EIVLTQSPATLSLSPGERATLSCRASKSISKYLAWYQQKPGQAPRLLIYSGSTLQSGIPARFSGSGSGTDFTLTISSLEPEDFAVYYCQQHLMGPYTFGQGTKLEIK
Reply: 0.000213

Ask: Same read-out for M477 (antibody, V domains shown, anti-IL-13, human IgG1) VH: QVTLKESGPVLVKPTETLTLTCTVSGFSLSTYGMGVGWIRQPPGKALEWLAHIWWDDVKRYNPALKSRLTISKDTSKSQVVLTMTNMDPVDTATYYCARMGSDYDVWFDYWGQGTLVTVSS VL: EIVLTQSPATLSLSPGERATLSCRASKSISKYLAWYQQKPGQAPRLLIYSGSTLQSGIPARFSGSGSGTDFTLTISSLEPEDFAVYYCQQHSSGPYTFGQGTKLEIK ?
Reply: 0.00048
